# System: HT29 colon
# assay_protocol: NCI-60 one-dose screen, 48 h (100 = growth as untreated, 0 = no growth, -100 = all killed)
# conditions: 10 µM unless noted
The panel holds about 83,000 compounds, 20% with a hit somewhere; the sample as a whole holds those more often. The source made the active and inactive calls. The calls were made as follows: active = growth percent below 10; inactive = the rest.
Give measured growth for each item. Keep answers brief.

// below: answered molecules
CCN(CC)CCn1nc2c3c(cccc3c1=O)-c1ccccc1-2 | 15.6% (inactive)
COc1cc(CCC[P+](c2ccccc2)(c2ccccc2)c2ccccc2)cc2c1OCO2 | 79.3% (inactive)
O=C1/C(=C/c2ccccc2)CCc2nc3ccccc3c(/C=C/c3ccc(Cl)cc3)c21 | 81.3% (inactive)
C=C(C)[C@@H]1CC[C@]2(C)[C@H](CC=C3[C@@H]4CC(C)(C)CC[C@]4(C(N)=O)CC[C@]32C)[C@@]1(C)CCC#N | 39.3% (inactive)

Dear reader, for each entry below, please note its growth.
1. Cc1ccccc1NC(=O)N/C(N)=N/c1nc(-c2cccc([N+](=O)[O-])c2)cs1
2. CCCCn1c(=O)c2c(nc(NCCc3ccc(O)c(O)c3)n2CCC)n(CCCC)c1=O
3. CC(C)CCC[C@@H](C)[C@H]1CC[C@H]2[C@@H](Nc3ccc(O)cc3)CCC[C@]12C

Result string:
17.1% (inactive)
70.9% (inactive)
89.5% (inactive)

Report growth for every entry below.
1. COc1ccc(S(=O)(=O)NCCNc2nccc(-c3c(-c4cccc(F)c4)nc4sccn34)n2)cc1
2. COc1nc2c(c(=O)n1C)CN(c1ccccc1)C(=O)CN2C

Result string:
["23.9% (inactive)", "62.3% [100 µM] (inactive)"]
